Values were extracted from ChEMBL document CHEMBL2062516.

Catalogue of MIC values
Test system: Klebsiella pneumoniae
METHOD NOTES: Antibacterial activity against Klebsiella pneumoniae
Type: functional
OBSERVED PROPERTY: MIC (µg/mL)

INSERT INTO assay_data (smiles_input, tgt, observed_value) VALUES
  ('CC(C)CCO/N=C(\C(=O)N[C@@H]1C(=O)N2C(C(=O)O)=C(CSc3nnnn3CCO)OC[C@H]12)c1nsc(N)n1', 'Klebsiella pneumoniae', 64),
  ('CC(C)CCO/N=C(\C(=O)N[C@@H]1C(=O)N2C(C(=O)O)=C(CSc3nncs3)OC[C@H]12)c1nsc(N)n1', 'Klebsiella pneumoniae', 128),
  ('Nc1nc(/C(=N/OC2CCCC2)C(=O)N[C@@H]2C(=O)N3C(C(=O)O)=C(CSc4nnnn4CCO)OC[C@H]23)ns1', 'Klebsiella pneumoniae', 8),
  ('Nc1nc(/C(=N/OC2CCCCC2)C(=O)N[C@@H]2C(=O)N3C(C(=O)O)=C(CSc4nnnn4CCO)OC[C@H]23)ns1', 'Klebsiella pneumoniae', 128);
